molecular target: T1, tumor necrosis factor-α (TNF-α) (human, UniProt P01375 77-233, biotinylated with NHS-LC-LC-Biotin in the Kd and fluorescence assays; coupled to Epoxy-Activated Sepharose 6B in the column assays); assay: 35S free protein + biotin-TNF-α, capture membrane, equilibrium fit
T1 construct: Bought from Pepro Tech; also called biotin-TNF-α; biotinylated TNF-α
T1 sequence (P01375 77-233 limits assumed): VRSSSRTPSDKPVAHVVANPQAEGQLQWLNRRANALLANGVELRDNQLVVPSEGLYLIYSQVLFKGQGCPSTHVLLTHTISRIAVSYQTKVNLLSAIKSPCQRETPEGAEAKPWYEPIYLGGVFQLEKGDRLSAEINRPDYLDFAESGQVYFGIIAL
Collected pKd values appear next to each entry.
Interpret pKd as the negative base-10 log of the concentration measured in mol/L.

# count of solved cases: 2
T14.22 (designed binder) VSDVPRDLEVVAATPSSRLISWRPGRTYSRYYRITYGETGGNSPVQEFTVPPWANTATISGLKPGVDYTIAVYAVTFPTGYPLTEMPISINYRT	9.40
T10.15 (designed binder) VSDVPRDLEVVAATPTSLLISWHTERSFPRYYRITYGETGGNSPVQEFTVPPWGSIATISGLKPGVDYTITVYAVTEHYRDTGTGHPIPINYRT	8.40

Prompt: Report measured pKd; entry is M12.22 (designed binder) VSDVPRDLRVVAATPTSRLISWRPASNPARYYRITYGETGGNSPVQEFTVPPWASVATIGGLKPGVDYTVTVYAVTAQTGHRLHDKPISINYRT
Response: 9.15

Prompt: Report measured pKd; entry is T14.21 (designed binder) VSDVPRDLEVVAATPTSRLISWRPGRTYSRYYRITYGETGGNSPVQEFTVPPWANTATISGLKPGVDYTITAYAVTYTHSTPMQDEPISINYRT
Response: 8.15

Prompt: Report measured pKd; entry is M12.14 (designed binder) VSDVPRDLKVVAATPTSRLISWTHDNVPARYYRITYGETGGNSPVQELTVPPWASIATISGLKPGVDYTITVYAVTLYTGNHRPEHPISINYRT
Response: 8.77

Prompt: Report measured pKd; entry is M12.09 (designed binder) VSDVPRDLEVVAATPTSRLISWRPGRAYSRYFRITYGETGGNSPVQEFTVPPWANTATISGLKPGVDYTIAVYAVTFPPRYPLTEMPISINYRA
Response: 9.40

Values compiled from patent US20050038229A1.
